Entries and their measured Relative HLA MFI (10 uM) follow.
Test system: HLA class-I alleles A*0101, A*0201, A*0301, A*2402, B*0702, B*0801, B*1402, B*1501, B*2705, B*3501, B*3901, B*4001, B*4402, B*5201, B*5701, B*5801, B*8101 …
Format: cell-based, human
CONDITION LABEL: HLA A*02 mono-allelic TAP-deficient 721.221 cells; peptide 10 uM; relative anti-HLA MFI
// return just the number, without any unit appended

Q: Provide only the value of recorded Relative HLA MFI (10 uM) for RGPGRAFVTI [RI10]
A: 0.001172

Q: Give Relative HLA MFI (10 uM) for the following sequence: FLGKIWPSYK [FK10]
A: 0.3666

Q: Read off the recorded Relative HLA MFI (10 uM) for VLEWRFDSRL [VL10]
A: 0.04901

Q: Let me know recorded Relative HLA MFI (10 uM) for RILQQLLFI [RI9] , thanks.
A: 0.2027

Origin of measurements: paper PMC8293625
